- APPLIED_CONDITIONS: in acetone, 298.15 K
RESULT_TYPE: solubility (mole fraction)

Record summary for N#Cc1ccc2c(c1)OCO2 : reported solubility (mole fraction) = 0.181

---

- APPLIED_CONDITIONS: in ethyl acetate, 288.15 K
RESULT_TYPE: solubility (mole fraction)
Just the number.

Record summary for N#Cc1ccc2c(c1)OCO2 : reported solubility (mole fraction) = 0.118

---

- APPLIED_CONDITIONS: in n-propyl acetate, 318.15 K
RESULT_TYPE: solubility (mole fraction)

Record summary for N#Cc1ccc2c(c1)OCO2 : reported solubility (mole fraction) = 0.27

---

- APPLIED_CONDITIONS: in 2-methoxyethanol, 318.15 K
RESULT_TYPE: solubility (mole fraction)

Record summary for N#Cc1ccc2c(c1)OCO2 : reported solubility (mole fraction) = 0.192

---

- APPLIED_CONDITIONS: in isopropyl acetate, 323.15 K
RESULT_TYPE: solubility (mole fraction)
Just the number.

Record summary for N#Cc1ccc2c(c1)OCO2 : reported solubility (mole fraction) = 0.277

---

- APPLIED_CONDITIONS: in methanol, 303.15 K
RESULT_TYPE: solubility (mole fraction)
Just the number.

Record summary for N#Cc1ccc2c(c1)OCO2 : reported solubility (mole fraction) = 0.024

---

- APPLIED_CONDITIONS: in methyl acetate, 283.15 K
RESULT_TYPE: solubility (mole fraction)
Just the number.

Record summary for N#Cc1ccc2c(c1)OCO2 : reported solubility (mole fraction) = 0.118

---

- APPLIED_CONDITIONS: in ethyl acetate, 303.15 K
RESULT_TYPE: solubility (mole fraction)
Just the number.

Record summary for N#Cc1ccc2c(c1)OCO2 : reported solubility (mole fraction) = 0.187

---

- APPLIED_CONDITIONS: in ethyl acetate, 313.15 K
RESULT_TYPE: solubility (mole fraction)
Just the number.

Record summary for N#Cc1ccc2c(c1)OCO2 : reported solubility (mole fraction) = 0.247

---

- APPLIED_CONDITIONS: in ethyl acetate, 298.15 K
RESULT_TYPE: solubility (mole fraction)
Just the number.

Record summary for N#Cc1ccc2c(c1)OCO2 : reported solubility (mole fraction) = 0.166

---

- APPLIED_CONDITIONS: in methyl acetate, 308.15 K
RESULT_TYPE: solubility (mole fraction)

Record summary for N#Cc1ccc2c(c1)OCO2 : reported solubility (mole fraction) = 0.24

---

- APPLIED_CONDITIONS: in n-propanol, 298.15 K
RESULT_TYPE: solubility (mole fraction)
Just the number.

Record summary for N#Cc1ccc2c(c1)OCO2 : reported solubility (mole fraction) = 0.0159

---

- APPLIED_CONDITIONS: in n-propanol, 318.15 K
RESULT_TYPE: solubility (mole fraction)
Just the number.

Record summary for N#Cc1ccc2c(c1)OCO2 : reported solubility (mole fraction) = 0.0433

---

- APPLIED_CONDITIONS: in 1,4-dioxane, 318.15 K
RESULT_TYPE: solubility (mole fraction)
Just the number.

Record summary for N#Cc1ccc2c(c1)OCO2 : reported solubility (mole fraction) = 0.358

---

- APPLIED_CONDITIONS: in isopropanol, 283.15 K
RESULT_TYPE: solubility (mole fraction)
Just the number.

Record summary for N#Cc1ccc2c(c1)OCO2 : reported solubility (mole fraction) = 0.00606
